Molecular target: MBP-TaCCA1-7D (Triticum aestivum, UniProt A0A3B6TKA2 1-718)
Sequence (A0A3B6TKA2 entry or part of it): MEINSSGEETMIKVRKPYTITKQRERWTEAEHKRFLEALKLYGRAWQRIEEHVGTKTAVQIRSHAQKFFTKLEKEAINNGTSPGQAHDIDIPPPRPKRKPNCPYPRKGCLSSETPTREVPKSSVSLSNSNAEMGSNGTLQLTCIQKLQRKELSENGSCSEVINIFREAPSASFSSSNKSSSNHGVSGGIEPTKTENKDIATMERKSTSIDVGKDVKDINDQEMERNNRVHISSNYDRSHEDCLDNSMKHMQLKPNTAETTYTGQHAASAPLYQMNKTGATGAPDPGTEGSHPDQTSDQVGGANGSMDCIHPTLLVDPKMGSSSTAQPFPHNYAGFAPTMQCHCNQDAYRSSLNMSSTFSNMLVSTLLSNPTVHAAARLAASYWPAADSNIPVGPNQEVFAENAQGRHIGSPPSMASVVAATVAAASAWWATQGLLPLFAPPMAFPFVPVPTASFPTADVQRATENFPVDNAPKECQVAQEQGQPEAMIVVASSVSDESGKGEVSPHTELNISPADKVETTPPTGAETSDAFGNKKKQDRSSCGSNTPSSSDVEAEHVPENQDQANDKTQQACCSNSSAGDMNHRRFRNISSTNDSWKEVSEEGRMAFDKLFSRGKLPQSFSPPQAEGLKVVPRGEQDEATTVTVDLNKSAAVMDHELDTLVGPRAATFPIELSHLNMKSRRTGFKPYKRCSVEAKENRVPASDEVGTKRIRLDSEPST
Test: BLI; single-digit nM per text; exact value in Table S6 not in material; EMSA: 150 ng protein, 2 pM DIG probe, 10 ul, 1 h on ice, 6% PAGE in 0.5x TBE pH 8.0; BLI: Octet RED96e, SA sensors with biotinylated TaCCA1-7D; buffers not stated
Conditions: protein: recombinant; tags: MBP (pMAL-c2X, N-terminal); biotinylated for BLI; label: 5' biotin; blunt
pKd: −log10 of the molar value.
Assay metric: pKd

INSERT INTO results (binder, result) VALUES
  ('DAP-4 (TraesCS3B02G186700 promoter) (dsDNA) DNA 1: AATAGAAAATTACTGATATTTCATCCTTATGAGATT DNA 2: AATCTCATAAGGATGAAATATCAGTAATTTTCTATT', '> 8.00');
